Target: novel mammalian opioid receptor (LC132, OFQR) (Rattus norvegicus)
Construct: The entire coding region of the receptor cDNA insert was subcloned into the RcRVS vector; expressed in transfected cells
Sequence (P35370 whole entry): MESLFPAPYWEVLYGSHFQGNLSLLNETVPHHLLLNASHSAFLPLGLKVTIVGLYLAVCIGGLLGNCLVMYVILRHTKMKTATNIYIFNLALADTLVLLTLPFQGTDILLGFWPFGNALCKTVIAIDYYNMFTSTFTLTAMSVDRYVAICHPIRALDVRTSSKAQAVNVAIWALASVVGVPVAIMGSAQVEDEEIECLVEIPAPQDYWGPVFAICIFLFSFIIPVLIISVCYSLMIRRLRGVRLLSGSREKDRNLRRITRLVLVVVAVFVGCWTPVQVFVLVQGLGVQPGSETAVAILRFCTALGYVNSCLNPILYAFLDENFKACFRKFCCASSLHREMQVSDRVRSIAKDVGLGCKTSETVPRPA
Assay type: binding
assay.metric: specific binding of the radioactively-labeled ligand

CN1CC[C@]23c4c5ccc(O)c4O[C@H]2[C@@H](O)CC[C@H]3[C@H]1C5 [dihydromorphine] | no specific binding
C[C@@H](NC(=O)[C@@H](N)Cc1ccc(O)cc1)C(=O)NCC(=O)N(C)[C@@H](Cc1ccccc1)C(=O)NCCO | no specific binding
CCC12CCN(CC3(O)CC3)C(Cc3ccc(O)cc31)C2(C)C (stereo not shown) | no specific binding
